- Test system: Shigella dysenteriae
- Test details: Expected efficacy of anti-bacterial agents against various bacteria (Tables 5 and 6)
- Cond: Gram: neg
Measured quantity: Efficacy of various antibiotic agents

INSERT INTO measurements (substance_smiles, tested_system, measured_quantity, result) VALUES
  ('O=C(O)c1cn(C2CC2)c2cc(N3CCNCC3)c(F)cc2c1=O', 'Shigella dysenteriae', 'Efficacy of various antibiotic agents', 'yes'),
  ('CN[C@H](CC(C)C)C(=O)N[C@H]1C(=O)N[C@@H](CC(N)=O)C(=O)N[C@H]2C(=O)N[C@H]3C(=O)N[C@H](C(=O)N[C@H](C(=O)O)c4cc(O)cc(O)c4-c4cc3ccc4O)[C@H](O)c3ccc(c(Cl)c3)Oc3cc2cc(c3O[C@@H]2O[C@H](CO)[C@@H](O)[C@H](O)[C@H]2O[C@H]2C[C@](C)(N)[C@H](O)[C@H](C)O2)Oc2ccc(cc2Cl)[C@H]1O', 'Shigella dysenteriae', 'Efficacy of various antibiotic agents', 'no'),
  ('NC[C@H]1O[C@H](O[C@H]2[C@H](O)[C@@H](O[C@H]3O[C@H](CO)[C@@H](O)[C@H](N)[C@H]3O)[C@H](N)C[C@@H]2N)[C@H](N)C[C@@H]1O', 'Shigella dysenteriae', 'Efficacy of various antibiotic agents', 'yes'),
  ('C/C(=C\C(=O)OCCCCCCCCC(=O)O)C[C@@H]1OC[C@H](C[C@@H]2O[C@H]2[C@@H](C)[C@H](C)O)[C@@H](O)[C@H]1O', 'Shigella dysenteriae', 'Efficacy of various antibiotic agents', 'no'),
  ('CO/N=C(\C(=O)N[C@@H]1C(=O)N2C(C(=O)O)=C(CSc3nc(=O)c(=O)[nH]n3C)CS[C@H]12)c1csc(N)n1', 'Shigella dysenteriae', 'Efficacy of various antibiotic agents', 'yes');

* * *

- Tested on: Pseudomonas fluorescens
- Test details: Expected efficacy of anti-bacterial agents against various bacteria (Tables 5 and 6)
- Cond: Gram: neg
Measured quantity: Efficacy of various antibiotic agents

INSERT INTO measurements (substance_smiles, result) VALUES
  ('CN[C@H](CC(C)C)C(=O)N[C@H]1C(=O)N[C@@H](CC(N)=O)C(=O)N[C@H]2C(=O)N[C@H]3C(=O)N[C@H](C(=O)N[C@H](C(=O)O)c4cc(O)cc(O)c4-c4cc3ccc4O)[C@H](O)c3ccc(c(Cl)c3)Oc3cc2cc(c3O[C@@H]2O[C@H](CO)[C@@H](O)[C@H](O)[C@H]2O[C@H]2C[C@](C)(N)[C@H](O)[C@H](C)O2)Oc2ccc(cc2Cl)[C@H]1O', 'no'),
  ('O=C(O)c1cn(C2CC2)c2cc(N3CCNCC3)c(F)cc2c1=O', 'yes'),
  ('NC[C@H]1O[C@H](O[C@H]2[C@H](O)[C@@H](O[C@H]3O[C@H](CO)[C@@H](O)[C@H](N)[C@H]3O)[C@H](N)C[C@@H]2N)[C@H](N)C[C@@H]1O', 'yes'),
  ('CC[C@H]1OC(=O)[C@H](C)[C@@H](O[C@H]2C[C@@](C)(OC)[C@@H](O)[C@H](C)O2)[C@H](C)[C@@H](O[C@@H]2O[C@H](C)C[C@H](N(C)C)[C@H]2O)[C@](C)(O)C[C@@H](C)CN(C)[C@H](C)[C@@H](O)[C@]1(C)O', 'no'),
  ('C/C(=C\C(=O)OCCCCCCCCC(=O)O)C[C@@H]1OC[C@H](C[C@@H]2O[C@H]2[C@@H](C)[C@H](C)O)[C@@H](O)[C@H]1O', 'no');
